Assignment: determine reported sfGFP reporter fluorescence for the given variants.
B1: library; numbered along this chain (parent)
chain: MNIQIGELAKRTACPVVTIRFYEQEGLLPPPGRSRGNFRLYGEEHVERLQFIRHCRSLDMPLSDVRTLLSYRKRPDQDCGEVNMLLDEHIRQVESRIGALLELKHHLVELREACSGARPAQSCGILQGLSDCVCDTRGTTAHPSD

# Variants of: B1
# Procedure details: sfGFP reporter fluorescence (15 h) (µM FITC); higher = higher leak
# Assay conditions: library round: Round 1; ligand: none

## Input Return the recorded sfGFP reporter fluorescence value; entry: `MNIQIGELAKRTACPVVTIRFYEQEGLLPPPGRSRGNFRLYGEEHVERLQFIRHCRSLDMPLSDVRTLLSYRKRPDQDCGEVNMLLDEHIRQVESRSGALLELKHHLVELREACSGARPAQSCGILQILSDCVCDTRGTTAHPSD`
## Output 0.0694

## Input Kindly indicate its recorded sfGFP reporter fluorescence. Item: `MNIQIGELAKRTACPVVTIRFYEQEGLLPPPGRSRGNFRLYGEEHVERLQFIRHCRSLDMPLSDVRTLLSYRKRPDQDCGEVNMLLDEHIRQVESRIGALLELKHHLVELREACSGARPAQSCGILQGLSTCVCATRGTTAHPSD`
## Output 0.0636

## Input Supply sfGFP reporter fluorescence value. Item: `MNIQIGELAKRTACPVVTIRFYEQEGLLPPPGRSRGNFRLYGEEHVERLQFIRHCRSFDMNLSDVRTLLSYRKRPDQDCGEVNMLLDEHIRQVESRIGALLELKHHLVELREACSGARPAQSCGILQGLSDCVCDTRGTTAHPSD`
## Output 0.0663

## Input For the variant `MNIQIGELAKRTACPVVTIRFYEQEGLLPPPGRSRGNFRLYGEEHVERLQFIRHCRSLDMPLSKVRTLLSYRKRPDQDCGEVNMLLDEHIRQVESRIGALLELKHHLVELREAFSGARPAQSCGILQGLSDCVCDTRGTTAHPSD` , give its measured sfGFP reporter fluorescence value.
## Output 0.0621

## Input Provide sfGFP reporter fluorescence value for the following variant: `MNIQIGELAKRTACPVVTIRFYEQEGLLPPPGRSRGNFRLYGEEHVERLQFIRHCRSLDMPLSDVRTLLSYRKRPDQDCGEVSMLLDEHIRQVESRIGALLELKHHLVELREACSGARPAQSCGILQGLSACVCATRGTTAHPSD`
## Output 0.0661

## Input Provide measured sfGFP reporter fluorescence value, entry: `MNIQIGELAKRTACPVVTIRFYEQEGLLPPPGRSRGNFRLYGEEHVERLQFIRHCRSLDMPLSKVRTLLSYRKRPDQDCGEVTMLLDEHIRQVESRIGALLELKHHLVELREACSGARPAQSCGILQGLSSCVCDTRGTTAHPSD`
## Output 0.0698

Origin of the recorded values: the supplement of paper PMC12783771
